Cited source for all entries: ChEMBL document CHEMBL4152212

# testedOn: Aurora kinase B (Homo sapiens, UniProt Q96GD4)
# Sequence (Q96GD4 whole entry, the tested form may be a part): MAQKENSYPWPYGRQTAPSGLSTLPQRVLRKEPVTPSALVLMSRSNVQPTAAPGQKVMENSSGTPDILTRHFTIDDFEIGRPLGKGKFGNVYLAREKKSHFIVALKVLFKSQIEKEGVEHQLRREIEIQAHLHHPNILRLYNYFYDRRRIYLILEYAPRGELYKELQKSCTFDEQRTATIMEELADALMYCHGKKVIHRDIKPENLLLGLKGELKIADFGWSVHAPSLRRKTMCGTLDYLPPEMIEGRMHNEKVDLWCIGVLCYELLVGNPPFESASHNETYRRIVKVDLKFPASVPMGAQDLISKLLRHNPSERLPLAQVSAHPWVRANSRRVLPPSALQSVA
# assayProcedure: Inhibition of human recombinant full length Aurora-B (1 to 344 residues) expressed in Sf9 cells after 90 mins by kinase-glo luminescence assay
reportedMetric: pIC50
Kindly note that pIC50 refers to -log10 of the concentration in mol/L and answer with the value alone.

Field: example entries. Status: answers known.
CCc1ccc(NC(=O)Nc2ccc(CCNc3ncnc4oc(-c5ccccc5)c(Cl)c34)cc2)cc1: 6.35
CC(C)Cc1ccccc1NC(=O)Nc1ccc(CCNc2ncnc3oc(-c4ccccc4)c(Cl)c23)cc1: 6.15
O=C(Nc1ccc(CCNc2ncnc3oc(-c4ccccc4)c(Cl)c23)cc1)Nc1ccccc1CN1CCC(O)CC1: 7.10
CCN(CC)Cc1ccc(NC(=O)Nc2ccc(CCNc3ncnc4oc(-c5ccccc5)c(Cl)c34)cc2)cc1: 6.08
CC(C)c1ccccc1NC(=O)Nc1ccc(CCNc2ncnc3oc(-c4ccccc4)c(Cl)c23)cc1: 6.47

The record that follows has no pIC50 shown yet.
Given O=C(Nc1ccccc1)Nc1ccc(CCNc2ncnc3oc(-c4ccccc4)c(Cl)c23)cc1 , respond with its pIC50.
7.18
